The reported measurements were obtained from ChEMBL document CHEMBL1145135.

- EXPERIMENTAL_TARGET: Mitogen-activated protein kinase 14 (Mus musculus, UniProt P47811)
- Sequence (P47811 whole entry): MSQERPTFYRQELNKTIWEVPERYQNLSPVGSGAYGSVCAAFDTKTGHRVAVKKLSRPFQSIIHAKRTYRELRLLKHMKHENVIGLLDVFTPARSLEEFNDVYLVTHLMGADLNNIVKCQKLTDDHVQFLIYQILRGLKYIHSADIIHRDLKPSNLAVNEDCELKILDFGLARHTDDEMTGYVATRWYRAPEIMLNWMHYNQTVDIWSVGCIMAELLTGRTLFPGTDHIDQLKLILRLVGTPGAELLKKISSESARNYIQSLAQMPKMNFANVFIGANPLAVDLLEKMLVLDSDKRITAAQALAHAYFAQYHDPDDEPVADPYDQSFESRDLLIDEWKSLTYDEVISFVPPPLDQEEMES
- METHOD_NOTES: Kd value and murine Mitogen-activated protein kinase p38 alpha complex was calculated
PROPERTY_MEASURED: Kd (nM)

Would you please look over these solved cases?
| MOL_SMILES | MEASURED_RESULT |
| --- | --- |
| O=C(Nc1ccc(OCCN2CCOCC2)c2ccccc12)Nc1ccnn1-c1ccccc1 | 2400 |
| Cn1nc(C(C)(C)C)cc1NC(=O)Nc1ccc(OCCN2CCOCC2)c2ccccc12 | 26 |
| Cc1ccc(-n2nc(C(C)(C)C)cc2NC(=O)Nc2ccc(OCCN3C[C@@H](C)O[C@@H](C)C3)c3ccccc23)cc1 | 1.5 |

A = Cc1ccc(-n2nc(C(C)(C)C)cc2NC(=O)Nc2ccc(OCCN3CCOCC3)c3ccccc23)cn1
B = Cc1ccc(-n2nc(C(C)(C)C)cc2NC(=O)Nc2ccc(OCCc3cccnc3)c3ccccc23)cc1
Endpoint returns the identifier whose Kd is numerically larger, either A or B . # respond with the chosen item's label B
